Tested on: Phosphorylated Ribosomal Protein S6 (RPS6) in THP-1 cells
Assay: THP-1 RPS6 ELISA Assay
Type: cell-based, Human
Conditions: Homo sapiens; THP-1 cells, serum starved, 2 hours compound, 10 nM MCP-1 for 15 minutes, Phospho-RPS6 ELISA; read-out: PI3Kγ_THP1_RPS6_ELISA IC50
ATTRIBUTE_MEASURED: IC50

{"columns": ["COMPOUND", "ENDPOINT_RESULT"],
 "data": [
  ["Cc1ccc(C(O)(CO)C(F)(F)F)cc1-c1cnc(N)c(-c2cnn(C)c2)n1 (single isomer, unassigned) [Example 2]", "< 100 nM"],
  ["Cc1ccc(C(O)(CO)C(F)(F)F)cc1-c1cnc(N)c(C2CN(S(=O)(=O)c3ccn(C)n3)C2)n1 (stereo not drawn) [Example 23]", "< 500 nM"],
  ["[2H]C([2H])([2H])c1ccc(C(O)(CO)C(F)(F)F)cc1-c1cnc(N)c(C(=O)NC23CCC(CO)(C2)C3)n1 (single isomer, unassigned) [Example 31]", "< 100 nM"]
]}

* * *

Listed here: items and their measured IC50.
System: Phosphorylated Ribosomal Protein S6 (RPS6) in THP-1 cells
Test: THP-1 RPS6 ELISA Assay
Type: cell-based, Human
Settings: Homo sapiens; THP-1 cells, serum starved, 2 hours compound, 10 nM MCP-1 for 15 minutes, Phospho-RPS6 ELISA; read-out: PI3Kγ_THP1_RPS6_ELISA IC50
Experimental: Example A. THP-1 RPS6 ELISA Assay To measure the Phosphorylated Ribosomal Protein S6 (RPS6) in cell lysates, THP-1 cells (Human Acute Monocytic Leukemia) are purchased from ATCC (Manassas, VA) and maintained in RPMI with 10% FBS (Gibco/Life Technologies, Carlsbad, CA). […] The plate is measured using a microplate reader (SpectraMax M5—Molecular Devices, LLC Sunnyvale, CA) set to 450 nm with a wavelength correction of 540. […]

{"columns": ["COMPOUND", "IC50"],
 "data": [
  ["[2H]C([2H])([2H])c1ccc(C(O)(CO)C(F)F)cc1-c1cnc(N)c(C(=O)NC23CCC(O)(CC2)C3)n1 (single isomer, unassigned)", "< 100 nM"],
  ["[2H]C([2H])([2H])c1ccc(C(O)(CO)C(F)F)cc1-c1cnc(N)c(C(=O)NC2CCOCC2)n1 (single isomer, unassigned)", "< 100 nM"],
  ["Cc1ccc(C(O)(CO)C(F)(F)F)cc1-c1cnc(N)c(-c2ccns2)n1 (single isomer, unassigned)", "< 100 nM"]
]}

* * *

Test system: Phosphorylated Ribosomal Protein S6 (RPS6) in THP-1 cells
Assay: THP-1 RPS6 ELISA Assay
Type: cell-based, Human
Conditions: Homo sapiens, THP-1, read-out: PI3Kγ_THP1_RPS6_ELISA IC50 (nM)

{"columns": ["COMPOUND", "IC50"],
 "data": [
  ["Cc1ccc([C@](O)(CO)C(F)F)cc1-c1cnc(N)c(C(=O)NC(C)C)n1 (single isomer, unassigned) [Example 46]", "< 100 nM"]
]}

* * *

Listed here: items and their measured pIC50.
System: Phosphorylated Ribosomal Protein S6 (RPS6) in THP-1 cells
Assay: THP-1 RPS6 ELISA Assay
Type: cell-based, Human
Settings: Homo sapiens; THP-1 cells, serum starved, 2 hours compound, 10 nM MCP-1 for 15 minutes, Phospho-RPS6 ELISA; read-out: PI3Kγ_THP1_RPS6_ELISA IC50
pIC50: −log10 of the molar value.

{"columns": ["MOLECULE", "pIC50"],
 "data": [
  ["[2H]C([2H])([2H])c1ccc(C(O)(CO)C(F)F)cc1-c1cnc(N)c(C(=O)N[C@H]2CCCC[C@@H]2O)n1 (single isomer, unassigned) [Example 38]", "> 6.30"],
  ["Cc1ccc(C(O)(CO)C(F)(F)F)cc1-c1cnc(N)c(C2CC(C(=O)N3CC(O)C3)C2)n1 (single isomer, unassigned) [Example 24]", "> 6.30"],
  ["[2H]C([2H])([2H])c1ccc(C(O)(CO)C(F)(F)F)cc1-c1cnc(N)c(C(=O)N[C@]2(C)C[C@H](O)C2)n1 (single isomer, unassigned) [Example 30]", "> 7.00"]
]}
